Values were extracted from paper PMC3922157.

target: HAPT1 (Trypanosoma brucei brucei); assay: cell-based; format: cell-based, T. b. gambiense
Sequence (Q6ZXT3 whole entry): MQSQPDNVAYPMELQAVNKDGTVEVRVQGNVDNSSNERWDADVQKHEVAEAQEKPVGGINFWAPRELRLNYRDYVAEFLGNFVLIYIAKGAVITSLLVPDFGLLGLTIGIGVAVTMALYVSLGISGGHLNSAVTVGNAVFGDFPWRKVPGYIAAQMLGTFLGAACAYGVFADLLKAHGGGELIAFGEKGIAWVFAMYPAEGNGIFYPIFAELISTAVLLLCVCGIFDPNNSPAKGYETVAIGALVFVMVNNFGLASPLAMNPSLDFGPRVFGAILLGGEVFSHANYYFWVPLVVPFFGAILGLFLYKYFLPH
Assay Metric: Ki (µM)
Numbers only, in µM.

In: Entry under review: N=C(N)c1ccc(OCCCOc2ccc(C(=N)N)cc2)cc1 [propamidine] . Reported Ki?
Out: 22

* * *

system: LAPT1; experiment: [3H]pentamidine low-affinity transport, bloodstream forms; format: cell-based, T. b. brucei; details: read-out: IC50, inhibition of [3H]pentamidine uptake; aqp2 null cells; 30 nM [3H]pentamidine, 1 mM adenosine
Assay Metric: IC50 (µM)
Give bare numbers, in µM.

In: Report IC50 for N=C(N)c1ccc(OCCCCCOc2ccc(C(=N)N)cc2)cc1 [pentamidine] please.
Out: 33.4

* * *

tested on: bloodstream-form T. b. brucei; assay: Alamar blue drug susceptibility assay, bloodstream-form trypanosomes; type: cell-based; settings: Trypanosoma brucei, s427 WT; read-out: EC50
Assay Metric: pEC50
Numbers only, as −log10 of the molar value.

In: Look up pEC50: Nc1ncnc2c1ccn2[C@@H]1O[C@H](CO)[C@@H](O)[C@H]1O [tubercidin, 7-deazaadenosine]
Out: 6.64

* * *

So I've got Ki readings for TbAQP2 (Trypanosoma brucei brucei), take a look.
Answers are plain numbers, in µM.

Chemical Structure	Ki / µM
N=C(N)c1ccc(OCCCOc2ccc(C(=N)N)cc2)cc1	8.1

Lab note: next compound to report on.
In: Tell me reported Ki for N=C(N)c1ccc(/N=N/Nc2ccc(C(=N)N)cc2)cc1 , tested with TbAQP2 (Trypanosoma brucei brucei).
Sequence (Q6ZXT3 whole entry): as above
Out: 100

* * *

test system: bloodstream-form T. b. brucei; test: Alamar blue drug susceptibility assay, bloodstream-form trypanosomes; type: cell-based; details: Trypanosoma brucei, aqp2/aqp3 null expressing AQP3^sf2; P < 0.02
Assay Metric: EC50 (nM)
Give bare numbers, in nM.

In: # query: EC50 | item N=C(N)c1ccc(OCCCCCOc2ccc(C(=N)N)cc2)cc1 | system: bloodstream-form T. b. brucei
Out: 131
